Consider the following molecules; for each one, report its IC50.
Biological target: αvβ1 integrin (αvβ1 expressing CHO cells) (Homo sapiens (Human), UniProt P05556+P06756)
Sequence (P06756 31-889): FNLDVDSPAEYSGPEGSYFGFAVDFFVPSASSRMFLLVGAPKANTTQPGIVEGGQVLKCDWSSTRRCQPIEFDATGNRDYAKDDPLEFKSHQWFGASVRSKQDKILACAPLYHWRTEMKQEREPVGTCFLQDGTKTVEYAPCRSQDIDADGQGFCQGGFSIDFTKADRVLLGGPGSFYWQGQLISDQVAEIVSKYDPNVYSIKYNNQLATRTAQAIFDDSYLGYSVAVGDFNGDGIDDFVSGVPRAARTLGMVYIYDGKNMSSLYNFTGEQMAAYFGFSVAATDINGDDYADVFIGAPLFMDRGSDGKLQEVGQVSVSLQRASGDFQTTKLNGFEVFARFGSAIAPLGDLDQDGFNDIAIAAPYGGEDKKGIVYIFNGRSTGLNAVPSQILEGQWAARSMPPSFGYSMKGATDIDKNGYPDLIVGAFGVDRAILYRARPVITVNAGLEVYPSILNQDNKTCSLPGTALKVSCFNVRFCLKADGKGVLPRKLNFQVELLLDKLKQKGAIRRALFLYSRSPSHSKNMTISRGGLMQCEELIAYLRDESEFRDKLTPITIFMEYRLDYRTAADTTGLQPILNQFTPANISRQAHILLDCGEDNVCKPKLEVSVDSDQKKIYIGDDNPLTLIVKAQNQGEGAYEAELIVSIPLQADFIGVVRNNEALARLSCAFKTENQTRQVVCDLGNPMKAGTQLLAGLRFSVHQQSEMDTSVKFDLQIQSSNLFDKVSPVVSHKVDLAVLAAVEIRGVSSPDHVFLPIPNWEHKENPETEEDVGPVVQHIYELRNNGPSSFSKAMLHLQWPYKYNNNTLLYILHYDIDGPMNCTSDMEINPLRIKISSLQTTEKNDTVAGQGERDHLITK
Sequence (P06756 891-1048 partner): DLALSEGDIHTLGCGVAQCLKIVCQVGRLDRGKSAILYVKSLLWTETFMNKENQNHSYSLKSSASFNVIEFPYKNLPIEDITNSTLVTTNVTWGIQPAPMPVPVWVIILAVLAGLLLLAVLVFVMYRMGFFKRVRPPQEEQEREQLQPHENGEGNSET
Sequence (P05556 21-798): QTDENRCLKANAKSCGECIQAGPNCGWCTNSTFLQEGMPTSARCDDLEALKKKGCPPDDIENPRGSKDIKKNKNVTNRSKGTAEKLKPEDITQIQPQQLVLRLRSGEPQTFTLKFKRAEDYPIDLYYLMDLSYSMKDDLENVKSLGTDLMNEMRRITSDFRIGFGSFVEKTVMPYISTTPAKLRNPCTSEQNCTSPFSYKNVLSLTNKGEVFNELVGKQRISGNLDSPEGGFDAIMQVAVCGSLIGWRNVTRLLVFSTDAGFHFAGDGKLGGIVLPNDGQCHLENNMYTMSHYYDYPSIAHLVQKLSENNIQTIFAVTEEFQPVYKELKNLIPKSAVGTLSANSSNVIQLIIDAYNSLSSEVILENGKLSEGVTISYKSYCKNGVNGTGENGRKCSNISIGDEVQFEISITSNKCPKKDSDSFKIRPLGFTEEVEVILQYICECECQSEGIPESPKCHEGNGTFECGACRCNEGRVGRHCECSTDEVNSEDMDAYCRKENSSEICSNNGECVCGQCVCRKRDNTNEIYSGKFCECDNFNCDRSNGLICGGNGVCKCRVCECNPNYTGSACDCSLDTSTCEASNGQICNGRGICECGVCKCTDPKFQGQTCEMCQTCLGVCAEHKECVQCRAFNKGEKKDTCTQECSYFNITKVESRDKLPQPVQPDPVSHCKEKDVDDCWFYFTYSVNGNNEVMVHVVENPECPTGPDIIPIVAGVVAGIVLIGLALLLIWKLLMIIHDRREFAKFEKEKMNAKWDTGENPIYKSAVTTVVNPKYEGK
Experiment: Cell adhesion assay: inhibition of αvβ1 expressing CHO cells attaching to TGFβ1LAP
Assay type: cell-based
Conditions: 1 h at 37° C., crystal violet absorbance 595 nm, read-out: αvβ1 Inhibition IC50 (nM)-range
Structures can show the parent of a compound that is named as a salt.

Query string: Give me measured IC50, please, for this molecule: Cn1ncc2ccc(C(=O)NC(CCCCCCCc3ccc4c(n3)NCCC4)C(=O)O)cc21 (stereo not shown) [Compound 81]
Result string: 50 to 250 nM

Query string: Give me measured IC50, please, for this molecule: O=C(N[C@@H](Cc1ccc(OCCCc2ccc3c(n2)NCCC3)cc1)C(=O)O)c1ccc2cn[nH]c2c1 [Example 40]
Result string: < 50 nM

Query string: Give me measured IC50, please, for this molecule: O=C(N[C@@H](Cc1ccc(OCCCc2ccc3c(n2)NCCC3)cc1)C(=O)O)c1cc(F)ccc1Cl [Example 36]
Result string: < 50 nM

Query string: Give me measured IC50, please, for this molecule: O=C(NC(Cc1ccc(OCC2CCC(Nc3ccccn3)CC2)cc1)C(=O)O)c1c(Cl)cccc1Cl (stereo not shown) [Example 25]
Result string: 50 to 250 nM

Query string: Give me measured IC50, please, for this molecule: O=C(N[C@@H](Cc1ccc(OCCCc2ccc3c(n2)NCCC3)cc1)C(=O)O)c1cccnc1 [Example 14]
Result string: < 50 nM

Query string: Give me measured IC50, please, for this molecule: O=C(N[C@@H](Cc1ccc(COCCCNc2ccccn2)cc1)C(=O)O)c1c(Cl)cccc1Cl [Example 30, trifluoroacetate]
Result string: 250 to 1000 nM

Query string: Give me measured IC50, please, for this molecule: O=C(N[C@@H](CCCCCCCCNC1=NCCNC1)C(=O)O)c1c(Cl)cccc1Cl [Example 47]
Result string: > 1000 nM

###

Target: αvβ1 integrin (αvβ1 expressing CHO cells) (Homo sapiens (Human), UniProt P05556+P06756)
Assay: Cell adhesion assay: inhibition of αvβ1 expressing CHO cells attaching to TGFβ1LAP
Format: cell-based
Conditions: 1 h at 37° C., crystal violet absorbance 595 nm, read-out: αvβ1 Inhibition IC50 (nM)-range
Structures can show the parent of a compound that is named as a salt.
assayMetric: IC50

Query string: Give me measured IC50, please, for this compound: Cn1cnc2ccc(C(=O)N[C@@H](Cc3ccc(OCCCc4ccc5c(n4)NCCC5)cc3)C(=O)O)cc21
Result string: < 50 nM

Query string: Give me measured IC50, please, for this compound: O=C(N[C@@H](Cc1ccc(OCCCCNC2=NCCNC2)cc1)C(=O)O)c1c(Cl)cccc1Cl
Result string: 250 to 1000 nM

Query string: Give me measured IC50, please, for this compound: O=C(N[C@@H](Cc1ccc(COCCc2ccc3c(n2)NCCC3)cc1)C(=O)O)c1c(Cl)cccc1Cl [Example 29, trifluoroacetate]
Result string: < 50 nM

Query string: Give me measured IC50, please, for this compound: Cn1ncc2cc(C(=O)N[C@@H](CCCCCCCc3ccc4c(n3)NCCC4)C(=O)O)ccc21
Result string: 50 to 250 nM

Query string: Give me measured IC50, please, for this compound: O=C(N[C@@H](Cc1ccc(OCCCCNC2=NCCCS2)cc1)C(=O)O)c1c(Cl)cccc1Cl
Result string: < 50 nM

Query string: Give me measured IC50, please, for this compound: CC(OCCc1ccc2c(n1)NCCC2)c1ccc(C[C@H](NC(=O)c2c(Cl)cccc2Cl)C(=O)O)cc1 (stereo partly drawn)
Result string: < 50 nM

Query string: Give me measured IC50, please, for this compound: O=C(N[C@@H](Cc1ccc(OCCCc2ccc3c(n2)NCCC3)cc1)C(=O)O)c1cncc(-c2ccccc2)n1
Result string: > 1000 nM

Query string: Give me measured IC50, please, for this compound: O=C(N[C@@H](CCCCCCCc1ccc2c(n1)NCCC2)C(=O)O)c1cn[nH]c1-c1ccccc1
Result string: 50 to 250 nM

Query string: Give me measured IC50, please, for this compound: Cn1cc2cc(C(=O)NC(CCCCCCCc3ccc4c(n3)NCCC4)C(=O)O)ccc2n1 (stereo not drawn)
Result string: 50 to 250 nM

Query string: Give me measured IC50, please, for this compound: Cn1cnc2cc(C(=O)N[C@@H](Cc3ccc(OCCCc4ccc5c(n4)NCCC5)cc3)C(=O)O)ccc21
Result string: 50 to 250 nM

Query string: Give me measured IC50, please, for this compound: O=C(N[C@@H](Cc1ccc(OCCCCNC2=NCCCO2)cc1)C(=O)O)c1c(Cl)cccc1Cl
Result string: > 1000 nM

Query string: Give me measured IC50, please, for this compound: O=C(N[C@@H](CCCCCCCc1ccc2c(n1)NCCC2)C(=O)O)c1ccc2[nH]ncc2c1
Result string: 50 to 250 nM

Query string: Give me measured IC50, please, for this compound: O=C(N[C@@H](CCCCCCCCNC1=NCCCO1)C(=O)O)c1c(Cl)cccc1Cl
Result string: > 1000 nM

Query string: Give me measured IC50, please, for this compound: O=C(N[C@@H](C/C=C/CCCCc1ccc2c(n1)NCCC2)C(=O)O)c1c(Cl)cccc1Cl
Result string: < 50 nM

Query string: Give me measured IC50, please, for this compound: N#Cc1cc(Cl)c(C(=O)N[C@@H](Cc2ccc(OCCCc3ccc4c(n3)NCCC4)cc2)C(=O)O)c(Cl)c1
Result string: < 50 nM

###

Consider the following compounds; for each one, report its IC50.
Biological target: αvβ1 integrin (αvβ1 expressing CHO cells) (Homo sapiens (Human), UniProt P05556+P06756)
Assay: Cell adhesion assay: inhibition of αvβ1 expressing CHO cells attaching to TGFβ1LAP
Format: cell-based
Details: 1 h at 37° C., crystal violet absorbance 595 nm, read-out: αvβ1 Inhibition IC50 (nM)-range

Query string: Give me measured IC50, please, for this compound: O=C(N[C@@H](Cc1ccc(OCCCc2ccc3c(n2)NCCC3)cc1)C(=O)O)c1ccc2ocnc2c1
Result string: < 50 nM

Query string: Give me measured IC50, please, for this compound: Cn1cc2cc(C(=O)N[C@@H](Cc3ccc(OCCCc4ccc5c(n4)NCCC5)cc3)C(=O)O)ccc2n1
Result string: < 50 nM

Query string: Give me measured IC50, please, for this compound: O=C(N[C@@H](CCCCCCCc1ccc2c(n1)NCCC2)C(=O)O)c1cccc2[nH]ncc12
Result string: < 50 nM

Query string: Give me measured IC50, please, for this compound: CC(C)(CCNc1ccccn1)Nc1ccc(C[C@H](NC(=O)c2c(Cl)cccc2Cl)C(=O)O)cc1
Result string: > 1000 nM

Query string: Give me measured IC50, please, for this compound: O=C(NC(CCCCCCCc1ccc2c(n1)NCCC2)C(=O)O)c1ccc2cn[nH]c2c1 (stereo not shown)
Result string: 50 to 250 nM

Query string: Give me measured IC50, please, for this compound: O=C(N[C@@H](CCCCCCCc1ccc2c(n1)NCCC2)C(=O)O)c1ccc2nn(C(F)F)cc2c1
Result string: 250 to 1000 nM

Query string: Give me measured IC50, please, for this compound: Cn1cc2cc(C(=O)N[C@@H](CCCCCCCc3ccc4c(n3)NCCC4)C(=O)O)ccc2n1
Result string: 50 to 250 nM

###

Target: recombinant human integrin αvβ1 (Homo sapiens (Human), UniProt P05556+P06756)
Sequence (P06756 31-889): as the sequence (P06756 31-889) above
Sequence (P06756 891-992 partner): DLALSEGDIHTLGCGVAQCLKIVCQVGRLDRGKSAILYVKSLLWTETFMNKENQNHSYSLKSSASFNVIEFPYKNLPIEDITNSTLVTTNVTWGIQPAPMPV
Sequence (P05556 21-728): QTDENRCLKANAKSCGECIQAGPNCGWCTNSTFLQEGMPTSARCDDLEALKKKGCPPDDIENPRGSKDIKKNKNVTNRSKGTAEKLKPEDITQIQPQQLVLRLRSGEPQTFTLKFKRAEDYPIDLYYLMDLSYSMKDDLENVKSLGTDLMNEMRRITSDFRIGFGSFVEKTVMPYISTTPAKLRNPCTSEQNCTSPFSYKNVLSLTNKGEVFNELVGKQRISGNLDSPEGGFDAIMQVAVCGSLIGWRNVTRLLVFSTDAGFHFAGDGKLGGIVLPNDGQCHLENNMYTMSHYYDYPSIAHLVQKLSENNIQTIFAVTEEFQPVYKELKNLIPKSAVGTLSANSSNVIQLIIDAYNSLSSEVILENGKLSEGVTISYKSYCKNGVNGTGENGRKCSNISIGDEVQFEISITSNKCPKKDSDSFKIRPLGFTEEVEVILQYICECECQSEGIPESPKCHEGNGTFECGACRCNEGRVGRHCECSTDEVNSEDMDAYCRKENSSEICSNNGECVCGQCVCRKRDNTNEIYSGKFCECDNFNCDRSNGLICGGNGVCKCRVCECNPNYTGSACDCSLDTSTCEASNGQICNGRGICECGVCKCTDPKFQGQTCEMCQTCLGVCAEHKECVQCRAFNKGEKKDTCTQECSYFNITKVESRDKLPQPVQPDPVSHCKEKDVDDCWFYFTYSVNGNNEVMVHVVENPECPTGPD
Assay: Solid phase integrin αvβ1 binding assay (fibronectin)
Conditions: recombinant human integrin αvβ1 coated plate, recombinant fibronectin 2 ug/ml, 2 hours at 25° C., read-out: αvβ1 Inhibition IC50 (nM)-range
assayMetric: IC50

Query string: Give me measured IC50, please, for this compound: O=C(N[C@H](CCCCCCCc1ccc2c(n1)NCCC2)C(=O)O)c1cccc(-c2cncs2)c1
Result string: > 1000 nM

Query string: Give me measured IC50, please, for this compound: N#Cc1cccc(C(=O)NC(CCCCCCCc2ccc3c(n2)NCCC3)C(=O)O)c1 (stereo not shown)
Result string: < 50 nM

Query string: Give me measured IC50, please, for this compound: O=C(N[C@@H](CCCCCCCc1ccc2c(n1)NCCC2)C(=O)O)c1cc(F)cc(C(F)(F)F)c1
Result string: < 50 nM

Query string: Give me measured IC50, please, for this compound: O=C(NC(CCCCCCCc1ccc2c(n1)NCCC2)C(=O)O)c1cccc(F)c1 (stereo not shown)
Result string: < 50 nM

Query string: Give me measured IC50, please, for this compound: O=C(NC(CCCCCCCc1ccc2c(n1)NCCC2)C(=O)O)c1c(Cl)cccc1Cl (stereo not shown)
Result string: < 50 nM

Query string: Give me measured IC50, please, for this compound: O=C(NC(CN1CCC(OCCCc2ccc3c(n2)NCCC3)C1)C(=O)O)c1c(Cl)cccc1Cl (stereo not shown)
Result string: 250 to 1000 nM

Query string: Give me measured IC50, please, for this compound: Cn1ncc2ccc(C(=O)NC(CCCCCCCc3ccc4c(n3)NCCC4)C(=O)O)cc21 (stereo not shown)
Result string: < 50 nM
